These entries and their values trace back to PubChem BioAssay AID1963969.

Items are presented alongside their recorded viability, T/C.
tested on: 817829-284-R-J1-PDC multi-cell spheroid viability; assay: Anticancer human tumor 817829-284-R-J1-PDC patient-derived colon adenocarcinoma cell line growth inhibition [PI3K]; settings: second compound 0.0316 µM; first compound 10 µM; hits give low values;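 also: spheroids exposed to agents for seven days before readout; percent of vehicle DMSO control viability which is 100%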

{"compound": "Cn1ncc(Cl)c1-c1cc(C(=O)NC(CN)Cc2cccc(F)c2)sc1Cl (stereo not given) + COc1c(OCCCN2CCOCC2)ccc2c3n(c(=NC(=O)c4cnc(N)nc4)nc12)CCN3", "viability, T/C, %": 10.5}
{"compound": "CNC(=O)c1ccc(N2C(=S)N(c3ccc(C#N)c(C(F)(F)F)c3)C(=O)C2(C)C)cc1F + CC(Nc1ccc2c(c1)OCCn1cc(N3C(=O)OCC3C(F)F)nc1-2)C(N)=O", "viability, T/C, %": 54.6}
{"compound": "Cn1nccc1Nc1nccc(-c2ccn(C(CO)c3ccc(Cl)c(F)c3)c(=O)c2)n1 (stereo not given) + Cc1nc(NC(=O)N2CCCC2C(N)=O)sc1-c1ccnc(C(C)(C)C(F)(F)F)c1", "viability, T/C, %": 41.6}
{"compound": "CC(Cn1ccc(-c2ccc(C#N)c(Cl)c2)n1)NC(=O)c1cc(C(C)O)[nH]n1 (stereo not given) + COc1c(OCCCN2CCOCC2)ccc2c3n(c(=NC(=O)c4cnc(N)nc4)nc12)CCN3", "viability, T/C, %": 36.4}
{"compound": "C#Cc1c(F)ccc2cc(O)cc(-c3ncc4c(N5CC6CCC(C5)N6)nc(OCC56CCCN5CC(F)C6)nc4c3F)c12 (stereo not given) + COc1c(OCCCN2CCOCC2)ccc2c3n(c(=NC(=O)c4cnc(N)nc4)nc12)CCN3", "viability, T/C, %": 37.2}
